Here, each record is paired with measured IC50 (log10 nM) data.
# Tested on: murine gastric organoid diffuse (Cdh1 fl/fl; Apc fl/fl)
# RUN_DESCRIPTION: IC50 (viability, PrestoBlue) (log10 nM)
# ASSAY_CONDITIONS: exposure time: 72 h
OBSERVED_PROPERTY: IC50 (log10 nM)

COMPOUND: Cc1ccc(F)c(NC(=O)Nc2ccc(-c3cccc4[nH]nc(N)c34)cc2)c1 [Linifanib]
TARGET_ENTITY: murine gastric organoid diffuse (Cdh1 fl/fl; Apc fl/fl)
INEQUALITY_SIGN: =
OBSERVED_VALUE: 4.2
//
COMPOUND: CCN1CCN(Cc2ccc(Nc3ncc(F)c(-c4cc(F)c5nc(C)n(C(C)C)c5c4)n3)nc2)CC1
TARGET_ENTITY: murine gastric organoid diffuse (Cdh1 fl/fl; Apc fl/fl)
INEQUALITY_SIGN: =
OBSERVED_VALUE: 2.7
//
COMPOUND: Cc1cc(C)c(/C=C2\C(=O)Nc3ccccc32)[nH]1 [SU 5416]
TARGET_ENTITY: murine gastric organoid diffuse (Cdh1 fl/fl; Apc fl/fl)
INEQUALITY_SIGN: =
OBSERVED_VALUE: 4.33
//
COMPOUND: Cc1ccc(Nc2nccc(N(C)c3ccc4c(C)n(C)nc4c3)n2)cc1S(N)(=O)=O [Pazopanib]
TARGET_ENTITY: murine gastric organoid diffuse (Cdh1 fl/fl; Apc fl/fl)
INEQUALITY_SIGN: =
OBSERVED_VALUE: 1.42
//
COMPOUND: CN(N=O)C(=O)N[C@@H](C=O)[C@@H](O)[C@H](O)[C@H](O)CO [Streptozocin]
TARGET_ENTITY: murine gastric organoid diffuse (Cdh1 fl/fl; Apc fl/fl)
INEQUALITY_SIGN: >
OBSERVED_VALUE: 4.4

----------
Listed compounds paired with reported IC50 (log10 nM)
# Test system: murine normal gastric organoid
# RUN_DESCRIPTION: IC50 (viability, PrestoBlue) (log10 nM)
# ASSAY_CONDITIONS: exposure time: 72 h
Where a name gives a salt, the structure may show the parent alone.

COMPOUND: Oc1ncc(N(CCCl)CCCl)c(O)n1
INEQUALITY_SIGN: =
IC50 (log10 nM): 3.3
//
COMPOUND: Cn1nnc2c(C(N)=O)ncn2c1=O [Temozolomide]
INEQUALITY_SIGN: =
IC50 (log10 nM): 4.37
//
COMPOUND: CC1=C(/C=C/C(C)=C/C=C/C(C)=C/C(=O)O)C(C)(C)CCC1
INEQUALITY_SIGN: >
IC50 (log10 nM): 4.4
//
COMPOUND: CN(Cc1cnc2nc(N)nc(N)c2n1)c1ccc(C(=O)N[C@@H](CCC(=O)O)C(=O)O)cc1 [Methotrexate]
INEQUALITY_SIGN: =
IC50 (log10 nM): 3.41
//
COMPOUND: CC(C)C[C@H](NC(=O)[C@H](Cc1ccccc1)NC(=O)c1cnccn1)B(O)O
INEQUALITY_SIGN: =
IC50 (log10 nM): 1.14
//
COMPOUND: CC[C@@H]1C(=O)N(C)c2cnc(Nc3ccc(C(=O)N[C@H]4CC[C@H](N5CCN(CC6CC6)CC5)CC4)cc3OC)nc2N1C(C)C
INEQUALITY_SIGN: =
IC50 (log10 nM): 1.98
//
COMPOUND: N.N.[Cl][Pt][Cl] [Cisplatin]
INEQUALITY_SIGN: =
IC50 (log10 nM): 3
//
COMPOUND: Cc1ccc(Nc2nccc(N(C)c3ccc4c(C)n(C)nc4c3)n2)cc1S(N)(=O)=O
INEQUALITY_SIGN: =
IC50 (log10 nM): 4.21
//
COMPOUND: Cc1ccc(NC(=O)c2ccc(CN3CCN(C)CC3)cc2)cc1Nc1nc(-c2cccnc2)cs1 [Masitinib mesylate]
INEQUALITY_SIGN: =
IC50 (log10 nM): 3.68
//
COMPOUND: Cc1ccc(C(=O)Nc2ccc(CN3CCN(C)CC3)c(C(F)(F)F)c2)cc1C#Cc1cnc2cccnn12
INEQUALITY_SIGN: =
IC50 (log10 nM): 3.04
//
COMPOUND: Nc1nc(=S)c2[nH]cnc2[nH]1
INEQUALITY_SIGN: =
IC50 (log10 nM): 3.73
//
COMPOUND: Cn1cncc1[C@@](N)(c1ccc(Cl)cc1)c1ccc2c(c1)c(-c1cccc(Cl)c1)cc(=O)n2C
INEQUALITY_SIGN: =
IC50 (log10 nM): 2.96
//
COMPOUND: Nc1ncn([C@@H]2O[C@H](CO)[C@@H](O)[C@H]2O)c(=O)n1
INEQUALITY_SIGN: =
IC50 (log10 nM): 3.78
//
COMPOUND: Nc1nc(Cl)nc2c1ncn2[C@H]1C[C@H](O)[C@@H](CO)O1
INEQUALITY_SIGN: =
IC50 (log10 nM): 3.19
//
COMPOUND: O=C(Nc1cccc(Cl)c1)Nc1ncc(CCNc2ncnc3ccsc23)s1
INEQUALITY_SIGN: =
IC50 (log10 nM): 3.2
//
COMPOUND: CN(C)C/C=C/C(=O)Nc1cc2c(Nc3ccc(F)c(Cl)c3)ncnc2cc1O[C@H]1CCOC1
INEQUALITY_SIGN: =
IC50 (log10 nM): 1.55
//
COMPOUND: Clc1ccc(Nc2nnc(Cc3ccncc3)c3ccccc23)cc1
INEQUALITY_SIGN: =
IC50 (log10 nM): 3.55
//
COMPOUND: S=P(N1CC1)(N1CC1)N1CC1
INEQUALITY_SIGN: =
IC50 (log10 nM): 4.21
//
COMPOUND: NC(=O)N1CCC(CC(=O)N2CCC([C@H]3c4ncc(Br)cc4CCc4cc(Cl)cc(Br)c43)CC2)CC1
INEQUALITY_SIGN: =
IC50 (log10 nM): 3.33
//
COMPOUND: CCN1CCN(Cc2ccc(Nc3ncc(F)c(-c4cc(F)c5nc(C)n(C(C)C)c5c4)n3)nc2)CC1
INEQUALITY_SIGN: =
IC50 (log10 nM): 2.94
//
COMPOUND: O=C(/C=C/c1cccc(S(=O)(=O)Nc2ccccc2)c1)NO
INEQUALITY_SIGN: =
IC50 (log10 nM): 3.2
//
COMPOUND: C/C=C1\NC(=O)[C@H]2CSSCC/C=C/[C@H](CC(=O)N[C@H](C(C)C)C(=O)N2)OC(=O)[C@H](C(C)C)NC1=O
INEQUALITY_SIGN: <
IC50 (log10 nM): 0.826
//
COMPOUND: CC(C)c1cc(-c2n[nH]c(=O)n2-c2ccc3c(ccn3C)c2)c(O)cc1O
INEQUALITY_SIGN: =
IC50 (log10 nM): 1.59
//
COMPOUND: CC(C)(C)c1cc(NC(=O)Nc2ccc(-c3cn4c(n3)sc3cc(OCCN5CCOCC5)ccc34)cc2)no1
INEQUALITY_SIGN: =
IC50 (log10 nM): 3.06
//
COMPOUND: CC(=O)[C@]1(O)Cc2c(O)c3c(c(O)c2[C@@H](O[C@H]2C[C@H](N)[C@H](O)[C@H](C)O2)C1)C(=O)c1ccccc1C3=O [Idarubicin hydrochloride]
INEQUALITY_SIGN: =
IC50 (log10 nM): 1.1
//
COMPOUND: CS(=O)(=O)CCNCc1ccc(-c2ccc3ncnc(Nc4ccc(OCc5cccc(F)c5)c(Cl)c4)c3c2)o1
INEQUALITY_SIGN: =
IC50 (log10 nM): 2.54
//
COMPOUND: COc1cc(Nc2c(C#N)cnc3cc(OCCCN4CCN(C)CC4)c(OC)cc23)c(Cl)cc1Cl
INEQUALITY_SIGN: =
IC50 (log10 nM): 3.96
//
COMPOUND: CN(N=O)C(=O)N[C@@H](C=O)[C@@H](O)[C@H](O)[C@H](O)CO
INEQUALITY_SIGN: =
IC50 (log10 nM): 4.39
//
COMPOUND: COc1cc([C@@H]2c3cc4c(cc3[C@@H](O[C@@H]3O[C@@H]5CO[C@@H](c6cccs6)O[C@H]5[C@H](O)[C@H]3O)[C@H]3COC(=O)[C@H]23)OCO4)cc(OC)c1O [Teniposide]
INEQUALITY_SIGN: =
IC50 (log10 nM): 1.79

----------
Listed here are molecules together with their documented IC50 (log10 nM).
# Test system: murine gastric organoid diffuse (Cdh1 fl/fl; Apc fl/fl)
# RUN_DESCRIPTION: IC50 (viability, PrestoBlue) (log10 nM)
# ASSAY_CONDITIONS: exposure time: 72 h
Where a name gives a salt, the structure may show the parent alone.
OBSERVED_PROPERTY: IC50 (log10 nM)

MOLECULE: CC(=O)c1c(C)c2cnc(Nc3ccc(N4CCNCC4)cn3)nc2n(C2CCCC2)c1=O
OBSERVED_VALUE: 4.37
--
MOLECULE: COc1cc([C@@H]2c3cc4c(cc3[C@@H](O[C@@H]3O[C@@H]5CO[C@@H](c6cccs6)O[C@H]5[C@H](O)[C@H]3O)[C@H]3COC(=O)[C@H]23)OCO4)cc(OC)c1O [Teniposide]
OBSERVED_VALUE: 2.35
--
MOLECULE: CO[C@H]1C[C@@H]2CC[C@@H](C)[C@@](O)(O2)C(=O)C(=O)N2CCCC[C@H]2C(=O)O[C@H]([C@H](C)C[C@@H]2CC[C@@H](OCCO)[C@H](OC)C2)CC(=O)[C@H](C)/C=C(\C)[C@@H](O)[C@@H](OC)C(=O)[C@H](C)C[C@H](C)/C=C/C=C/C=C/1C
OBSERVED_VALUE: 3.31
--
MOLECULE: CC[C@]1(O)C[C@@H]2CN(CCc3c([nH]c4ccccc34)[C@@](C(=O)OC)(c3cc4c(cc3OC)N(C)[C@H]3[C@@](O)(C(=O)OC)[C@H](OC(C)=O)[C@]5(CC)C=CCN6CC[C@]43[C@@H]65)C2)C1 [Vinblastine sulfate]
OBSERVED_VALUE: < 0.826
--
MOLECULE: NC(=O)N1CCC(CC(=O)N2CCC([C@H]3c4ncc(Br)cc4CCc4cc(Cl)cc(Br)c43)CC2)CC1
OBSERVED_VALUE: 4.3
